# maps each entry to its MIC
# Test system: Aspergillus flavus
# PROTOCOL DESCRIPTION: Antifungal activity against Aspergillus flavus ATCC 204304 measured after 72 hrs by agar dilution method
# Format: functional
# RECORDED CONDITIONS: ATCC 204304, 72 h
Could you give me the number in µM? Just the number is fine.

[[record]]
molecule = "COc1cccc(C2C(C#N)=C(N)Oc3cc(OCc4cn([C@@H]5O[C@H](COC(C)=O)[C@@H](OC(C)=O)[C@H](OC(C)=O)[C@H]5OC(C)=O)nn4)ccc32)c1 (some centres not stated)"
recorded_result = 1.56

[[record]]
molecule = "CC(=O)OC[C@H]1O[C@@H](n2cc(COc3ccc4c(c3)OC(N)=C(C#N)C4c3ccccc3[N+](=O)[O-])nn2)[C@H](OC(C)=O)[C@@H](OC(C)=O)[C@@H]1OC(C)=O (some centres not stated)"
recorded_result = 6.25

[[record]]
molecule = "COc1ccccc1C1C(C#N)=C(N)Oc2cc(OCc3cn([C@@H]4O[C@H](COC(C)=O)[C@@H](OC(C)=O)[C@H](OC(C)=O)[C@H]4OC(C)=O)nn3)ccc21 (some centres not stated)"
recorded_result = 400

[[record]]
molecule = "CC(=O)OC[C@H]1O[C@@H](n2cc(COc3ccc4c(c3)OC(N)=C(C#N)C4c3ccc([N+](=O)[O-])cc3)nn2)[C@H](OC(C)=O)[C@@H](OC(C)=O)[C@@H]1OC(C)=O (some centres not stated)"
recorded_result = 1.56

[[record]]
molecule = "CC(=O)OC[C@H]1O[C@@H](n2cc(COc3ccc4c(c3)OC(N)=C(C#N)C4c3ccccc3)nn2)[C@H](OC(C)=O)[C@@H](OC(C)=O)[C@@H]1OC(C)=O (some centres not stated)"
recorded_result = 100


Entry CC(=O)OC[C@H]1O[C@@H](n2cc(COc3ccc4c(c3)OC(N)=C(C#N)C4c3cccc([N+](=O)[O-])c3)nn2)[C@H](OC(C)=O)[C@@H](OC(C)=O)[C@@H]1OC(C)=O (some centres not stated) — recorded MIC = 50

Per the records, this molecule ( CC(=O)OC[C@H]1O[C@@H](n2cc(COc3ccc4c(c3)OC(N)=C(C#N)C4c3ccc(Cl)cc3Cl)nn2)[C@H](OC(C)=O)[C@@H](OC(C)=O)[C@@H]1OC(C)=O (some centres not stated) ) has MIC equal to 25

Reported MIC ( COc1ccc(C2C(C#N)=C(N)Oc3cc(OCc4cn([C@@H]5O[C@H](COC(C)=O)[C@@H](OC(C)=O)[C@H](OC(C)=O)[C@H]5OC(C)=O)nn4)ccc32)cc1 (some centres not stated) ) = 12.5

get_value(item= COc1ccc(C2C(C#N)=C(N)Oc3cc(OCc4cn([C@@H]5O[C@H](COC(C)=O)[C@@H](OC(C)=O)[C@H](OC(C)=O)[C@H]5OC(C)=O)nn4)ccc32)cc1OC (some centres not stated) , readout=MIC) returns 3.12
